test system: crabgrass (Digitaria sanguinalis); test: Test C preemergence; format: in vivo; settings: Rate 62 g/ha; scale 0 to 100, 0 no effect, 100 complete control
quantityMeasured: Plant response rating, Crabgrass
Numbers only.

CC(C)c1ccn(C2OCN(c3cccc(C(F)(F)F)c3)C2=O)n1 (stereo not drawn) : 100

Batch: Plant response rating, Crabgrass for all items listed.
1. COc1cc(N2CCC(n3ccc(C(C)(C)C)n3)C2=O)ccc1C (stereo not drawn)
2. O=C1C(n2ccc(C3CCC3)n2)SCN1c1cccc(OC(F)(F)F)c1 (stereo not drawn)
3. CCC(C)c1ccn(C2OCN(c3cccc(OC(F)(F)F)c3)C2=O)n1 (stereo not drawn)
4. CCC(C)c1ccn(C2CCN(c3cccc(OC(C)C)c3)C2=O)n1 (stereo not drawn)
5. O=C1C(n2ccc(C3CC3)n2)OCN1c1cccc(C(F)(F)F)c1 (stereo not drawn)

A)
90
90
100
100
90

###

Would you mind telling me the reported Plant response rating, Morningglory of each entry?
tested on: morning glory (Ipomoea hederacea); test: Test B postemergence; format: in vivo; conditions: Rate 125 g/ha, scale 0 to 100, 0 no effect, 100 complete control
Answers are plain numbers.

As a guide, the following entries are already answered.
Cc1cc(C)nc(N2CCC(n3ccc(C(C)(C)C)n3)C2=O)c1 (centres unmarked) : 10
CCC(CC)c1ccn(C2CCN(c3ccc(F)c(C(F)(F)F)c3)C2=O)n1 (centres unmarked) : 0
COc1cc(N2CCC(n3ccc(C(C)(C)C)n3)C2=O)ccc1Br (centres unmarked) : 0
COc1cc(N2CCC(n3ccc(C(C)C)n3)C2=O)ccc1Cl (centres unmarked) : 50

Shift focus to the following entry.
Q) What value of Plant response rating, Morningglory has been recorded for this entry: CCCOC(=O)c1cccc(N2CCC(n3ccc(C(C)(C)C)n3)C2=O)c1 (centres unmarked)
A) 0

###

system: pigweed (Amaranthus retroflexus); experiment: Test C preemergence; assay type: in vivo; settings: preemergence, Rate 500 g/ha, visual evaluation after 12 to 14 days
quantityMeasured: Plant response rating (0 to 100), Pigweed
One number for each entry.

Batch: Plant response rating (0 to 100), Pigweed for all items listed.
1. COc1cc(N2CCC(n3ccc(C(C)C)n3)C2=O)ccc1C (stereo not drawn) [Compound 85]
2. CSc1cccc(N2CCC(n3ccc(C(C)(C)C)n3)C2=O)c1 (stereo not drawn) [Compound 86]
3. CCC(C)c1ccn(C2CCN(c3cccc(OC)c3)C2=O)n1 (stereo not drawn) [Compound 95]

A)
1: 100; 2: 100; 3: 60

###

test system: Surinam grass (Brachiaria decumbens); assay: Test B preemergence; type: in vivo; details: preemergence; Rate 125 g/ha; scale of 0 to 100 where 0 is no effect and 100 is complete control; 13 to 15 days
quantityMeasured: Plant response rating, Surinam grass
Numbers only.

As a guide, the following entries are already answered.
CCOc1cc(N2CCC(n3ccc(C(C)(C)C)n3)C2=O)ccc1C (stereo not shown) : 100
CCCC(C)c1ccn(C2OCN(c3cccc(OC(F)F)c3)C2=O)n1 (stereo not shown) : 80
CC(C)(C)c1ccn(C2CCN(c3ccc(F)c(Cl)c3)C2=O)n1 (stereo not shown) : 0
Cc1ccc(N2CCC(n3ccc(C(C)(C)C)n3)C2=O)cc1OC(F)F (stereo not shown) : 70

Batch: Plant response rating, Surinam grass for all items listed.
1. CC(C)(C)c1ccn(C2CCN(c3cccc(S(C)(=O)=O)c3)C2=O)n1 (stereo not shown)
2. CCCCC(C)c1ccn(C2SCN(c3cccc(C(F)(F)F)c3)C2=O)n1 (stereo not shown)
3. CC(C)(C)c1ccn(C2CCN(c3cccc(OC(=O)C(F)(F)F)c3)C2=O)n1 (stereo not shown)
4. Cc1ccc(N2CCC(n3ccc(C(C)(C)C)n3)C2=O)cc1OCCCl (stereo not shown)
5. CCCC(C)c1ccn(C2CCN(c3ccc(Cl)c(OC)c3)C2=O)n1 (stereo not shown)
6. O=C1C(n2ccc(C3CCCCC3)n2)OCN1c1cccc(C(F)(F)F)c1 (stereo not shown)

A)
1. 0
2. 0
3. 0
4. 50
5. 0
6. 0

###

Test system: crabgrass (Digitaria sanguinalis)
Experiment: Test B postemergence
Format: in vivo
Settings: Rate 500 g/ha, scale 0 to 100, 0 is no effect, 100 is complete control, 13 to 15 days
Procedure: […] At the same time, plants selected from these crop and weed species and also blackgrass (Alopecurus myosuroides), wheat (Triticum aestivum) and wild oat (Avena fatua) were treated with postemergence applications of test chemicals formulated in the same manner. […] Treated plants and controls were maintained in a greenhouse for 13 to 15 days, after which time all species were compared to controls and visually evaluated. […]
quantityMeasured: Plant response rating, Crabgrass
One number for each entry.

As a guide, the following entries are already answered.
CCOc1ccn(C2CCN(c3cccc(C(F)(F)F)c3)C2=O)n1 (stereo not drawn) : 0
CC(C)(C)c1ccn(C2CCN(c3cccc(SC(F)(F)F)c3)C2=O)n1 (stereo not drawn) : 0
O=C1C(n2ccc(C3CCCCC3)n2)SCN1c1cccc(C(F)(F)F)c1 (stereo not drawn) : 0
Cc1cc(N2CCC(n3ccc(C(C)(C)C)n3)C2=O)cc(Br)c1C (stereo not drawn) : 0
CC(C)(C)c1ccn(C2C(=O)N(c3cccc(C(F)(F)F)c3)C[S+]2[O-])n1 (stereo not drawn) : 50
CC(C)(C)c1ccn(C2CCN(c3ccc(F)c(Cl)c3)C2=O)n1 (stereo not drawn) : 0

Batch: Plant response rating, Crabgrass for all items listed.
1. Cc1ccn(C2CCN(c3cccc(C(F)(F)F)c3)C2=O)n1 (stereo not drawn)
2. CC(C)(C)c1ccn(C2CCN(c3ccc(Cl)c(Br)c3)C2=O)n1 (stereo not drawn)
3. CCC(C)c1ccn(C2OCN(c3cccc(C(F)(F)F)c3)C2=O)n1 (stereo not drawn)

A)
[60, 0, 90]

###

tested on: cocklebur (Xanthium strumarium); assay: Test C preemergence; type: in vivo; settings: preemergence, Rate 250 g/ha, visual evaluation after 12 to 14 days
Would you mind telling me the reported Plant response rating (0 to 100), Cocklebur of each entry?
Numbers only.

As a guide, the following entries are already answered.
CCOC(=O)c1cccc(N2CCC(n3ccc(C(C)(C)C)n3)C2=O)c1 (stereo not drawn) : 10
CCC(C)c1ccn(C2SCN(c3cccc(OC(F)(F)F)c3)C2=O)n1 (stereo not drawn) : 0
CC1(c2ccn(C3OCN(c4cccc(C(F)(F)F)c4)C3=O)n2)CC1 (stereo not drawn) : 0
COc1cccc(N2CCC(n3ccc(C(C)(C)C)n3)C2=O)c1 (stereo not drawn) : 0
COc1cc(OC)cc(N2CCC(n3ccc(C(C)(C)C)n3)C2=O)c1 (stereo not drawn) : 30

Q) What value of Plant response rating (0 to 100), Cocklebur has been recorded for this entry: CC(C)(C)c1ccn(C2CCN(c3ccc(Cl)c(Cl)c3)C2=O)n1 (stereo not drawn)
A) 0

###

system: smallflower flatsedge (Cyperus difformis); assay: Test C flooded paddy test; type: in vivo; settings: flooded paddy test, Rate 62 g/ha; scale 0 to 100 (0 no effect, 100 complete control)
quantityMeasured: Plant response rating, Flatsedge

As a guide, the following entries are already answered.
CC(C)(C)c1ccn(C2SCN(c3cccc(OC(F)(F)F)c3)C2=O)n1 (stereo not drawn) : 90
CC(C)c1ccn(C2OCN(c3cccc(OC(F)(F)F)c3)C2=O)n1 (stereo not drawn) : 0
CC(C)Oc1ccn(C2CCN(c3cccc(C(F)(F)F)c3)C2=O)n1 (stereo not drawn) : 0
CC(C)c1ccn(C2OCN(c3cccc(C(F)(F)F)c3)C2=O)n1 (stereo not drawn) : 90
CC(C)(C)c1ccn(C2CCN(c3ccc(F)c(Cl)c3)C2=O)n1 (stereo not drawn) : 80

Batch: Plant response rating, Flatsedge for all items listed.
1. CC(C)(C)c1ccn(C2CCN(c3ccc(F)c(Br)c3)C2=O)n1 (stereo not drawn)
2. CC(C)Oc1cccc(N2CCC(n3ccc(C(C)C)n3)C2=O)c1 (stereo not drawn)
3. O=C1C(n2ccc(C3CCCCC3)n2)OCN1c1cccc(C(F)(F)F)c1 (stereo not drawn)
4. CSc1cccc(N2CCC(n3ccc(C(C)(C)C)n3)C2=O)c1 (stereo not drawn)
5. CCCCC(C)c1ccn(C2OCN(c3cccc(OC(F)(F)F)c3)C2=O)n1 (stereo not drawn)

A)
1. 90
2. 90
3. 40
4. 0
5. 30

Batch: Plant response rating, Flatsedge for all items listed.
1. CC(C)(C)c1ccn(C2SCN(c3cccc(C(F)(F)F)c3)C2=O)n1 (stereo not drawn)
2. O=C1C(n2ccc(C3CCC3)n2)OCN1c1cccc(C(F)(F)F)c1 (stereo not drawn)

A)
[90, 90]

Batch: Plant response rating, Flatsedge for all items listed.
1. CC(C)(C)c1ccn(C2CCN(c3cccc(C#N)c3)C2=O)n1 (stereo not drawn)
2. O=C1C(n2ccc(C3CCCCC3)n2)SCN1c1cccc(C(F)(F)F)c1 (stereo not drawn)
3. CC1CCc2cn(C3CCN(c4cccc(C(F)(F)F)c4)C3=O)nc21 (stereo not drawn)
4. Cc1ccc(N2CCC(n3ccc(C(C)(C)C)n3)C2=O)cc1OC(F)F (stereo not drawn)

A)
1: 0; 2: 90; 3: 90; 4: 90

Batch: Plant response rating, Flatsedge for all items listed.
1. Cc1ccc(N2CCC(n3ccc(C(C)(C)C)n3)C2=O)cc1OCCCl (stereo not drawn)
2. CCCOC(=O)c1cccc(N2CCC(n3ccc(C(C)(C)C)n3)C2=O)c1 (stereo not drawn)

A)
1: 40; 2: 30
